Target under test: Ubiquitin carboxyl-terminal hydrolase 7 (Homo sapiens)
Sequence (Q93009 whole entry): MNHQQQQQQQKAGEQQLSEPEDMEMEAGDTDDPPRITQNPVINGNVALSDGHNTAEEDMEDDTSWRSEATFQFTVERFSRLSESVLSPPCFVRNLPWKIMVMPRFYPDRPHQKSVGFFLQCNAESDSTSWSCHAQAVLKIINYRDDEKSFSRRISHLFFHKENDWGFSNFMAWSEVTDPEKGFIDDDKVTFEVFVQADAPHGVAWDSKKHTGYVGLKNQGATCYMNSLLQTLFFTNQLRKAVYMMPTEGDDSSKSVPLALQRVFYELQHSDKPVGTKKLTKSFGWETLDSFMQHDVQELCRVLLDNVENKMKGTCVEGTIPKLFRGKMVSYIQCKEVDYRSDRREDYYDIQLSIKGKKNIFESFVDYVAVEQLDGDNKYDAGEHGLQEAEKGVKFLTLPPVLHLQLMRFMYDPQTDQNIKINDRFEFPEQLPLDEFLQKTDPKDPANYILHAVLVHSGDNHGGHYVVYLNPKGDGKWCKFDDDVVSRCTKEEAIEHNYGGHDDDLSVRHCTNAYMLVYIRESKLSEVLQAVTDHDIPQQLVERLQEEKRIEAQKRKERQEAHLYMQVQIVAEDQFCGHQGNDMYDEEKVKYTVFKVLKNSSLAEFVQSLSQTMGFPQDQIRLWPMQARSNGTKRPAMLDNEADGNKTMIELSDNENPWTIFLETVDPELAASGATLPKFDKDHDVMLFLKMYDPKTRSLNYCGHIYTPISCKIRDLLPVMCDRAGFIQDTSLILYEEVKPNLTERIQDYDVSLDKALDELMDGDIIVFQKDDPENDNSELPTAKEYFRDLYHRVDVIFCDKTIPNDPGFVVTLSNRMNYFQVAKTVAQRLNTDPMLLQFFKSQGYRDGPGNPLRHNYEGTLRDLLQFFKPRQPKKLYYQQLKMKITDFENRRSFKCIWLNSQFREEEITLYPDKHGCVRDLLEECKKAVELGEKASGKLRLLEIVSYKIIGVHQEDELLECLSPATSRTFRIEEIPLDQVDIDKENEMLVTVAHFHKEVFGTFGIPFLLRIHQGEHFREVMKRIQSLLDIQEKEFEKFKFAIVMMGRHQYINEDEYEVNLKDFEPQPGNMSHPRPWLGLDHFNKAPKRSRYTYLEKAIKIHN
Each entry below carries its reported IC50.
Give the number; µM is assumed, so skip it.

Here is how some compounds turned out for IC50.
N#Cc1nc2c(nc1C#N)-c1ccc(Cl)cc1C2=O
0.42
CCN(CCCNC(=O)c1ccc2nc3c(c(Cl)c2c1)CCCC3)Cc1ccccc1
22.6

The observed IC50 for "CN(CCCNC(=O)c1ccc2nc3c(c(Cl)c2c1)CCCC3)Cc1ccccc1" when tested with Ubiquitin carboxyl-terminal hydrolase 7 (Homo sapiens) stands at 28.1
